target: human GCG receptor (human, UniProt P47871 26-477); test: cell-based or functional assay
Sequence (P47871 26-477): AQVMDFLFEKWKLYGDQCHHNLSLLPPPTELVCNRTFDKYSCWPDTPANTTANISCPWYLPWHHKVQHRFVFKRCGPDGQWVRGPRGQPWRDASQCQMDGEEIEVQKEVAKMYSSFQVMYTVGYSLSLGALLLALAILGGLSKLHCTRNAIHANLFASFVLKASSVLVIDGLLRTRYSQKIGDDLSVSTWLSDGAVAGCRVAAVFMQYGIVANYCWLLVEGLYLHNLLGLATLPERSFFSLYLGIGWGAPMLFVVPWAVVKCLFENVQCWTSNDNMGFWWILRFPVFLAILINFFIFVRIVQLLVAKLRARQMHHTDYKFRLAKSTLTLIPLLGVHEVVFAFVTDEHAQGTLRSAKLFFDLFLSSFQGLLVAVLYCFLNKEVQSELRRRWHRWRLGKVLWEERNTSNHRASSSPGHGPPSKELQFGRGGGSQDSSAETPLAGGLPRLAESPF
Bridge positions count the residues as written; N and C are the ends. Square brackets hold non-standard residues; d marks the D form. Ends that are not written are not given here. * marks the point of attachment. Acetyl(2-(4-imidazolyl)) = O=C(Cc1c[nH]cn1)*; Aib = CC(C)(N)C(=O)O
Each entry belongs to exactly one class, chosen by where its In vitro activity (%) compared with native peptide, vs Glucagon falls: I: < 0.4%; II: ≥ 0.4% and < 30%; III: ≥ 30%

1. [Acetyl(2-(4-imidazolyl))][Aib]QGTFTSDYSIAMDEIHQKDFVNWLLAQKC (bridge 16-20; not fully specified) [triple agonist of SEQ ID NO: 92]; I
2. {Acetyl(2-(4-imidazolyl))}-[Aib]QGTFTSDYSIAMDEIHQKDFVNWLLNTC (bridge 15-19; numbers in words are those of the source; also: ring between positions 16 and 20, type not given here) [triple agonist of SEQ ID NO: 87]; I
3. H[Aib]QGTFTSDCSKYLDERAAQDFVQWLLDGGPSSGAPPPS (not fully specified) [triple agonist of SEQ ID NO: 25]; I
4. H[Aib]QGTFTSDVSSYLLGQAAKQFIAWLVKGGGPSSGAPPPSC (not fully specified) [triple agonist of SEQ ID NO: 3]; I
5. [Acetyl(2-(4-imidazolyl))]GEGTFISDYSIQLDEIAVQDFVEWLLAQKPSSGAPPPSHG [triple agonist of SEQ ID NO: 13]; I
6. Y[Aib]QGTFTSDYSKALDEKAAKDFVNWLLDHHPSSGQPPPSC (bridge 16-20) [triple agonist of SEQ ID NO: 99]; II
7. Y[Aib]QGTFTSDYSKYLDEKAAKEFVQWLLDHHPSSGQPPPSC (bridge 16-20) [triple agonist of SEQ ID NO: 75]; II
8. [Acetyl(2-(4-imidazolyl))]GEGTFISDLSKYMDEQAVQLFVEWLMAGGPSSGAPPPSHG (not fully specified) [triple agonist of SEQ ID NO: 12]; I
9. H[Aib]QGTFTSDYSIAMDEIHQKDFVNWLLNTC (bridge 16-20) [triple agonist of SEQ ID NO: 57]; I
10. H[Aib]QGTFTSDVSKYLDGQAAQEFVAWLLKGC [triple agonist of SEQ ID NO: 8]; I
11. H[Aib]QGTFTSDVSKYLDGQAAQEFVAWLLAGC [triple agonist of SEQ ID NO: 9]; I
12. H[Aib]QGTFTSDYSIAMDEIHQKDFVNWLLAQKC (bridge 16-20; not fully specified) [triple agonist of SEQ ID NO: 33]; I
13. Y[Aib]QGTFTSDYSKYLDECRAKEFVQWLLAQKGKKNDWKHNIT (bridge 16-20; not fully specified) [triple agonist of SEQ ID NO: 23]; II
14. H[Aib]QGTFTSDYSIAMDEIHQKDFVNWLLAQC (bridge 16-20; not fully specified) [triple agonist of SEQ ID NO: 55]; II
15. Y[Aib]QGTFTSDYSKCLDEKRAKDFVQWLLDHHPSSGQPPPS (bridge 16-20) [triple agonist of SEQ ID NO: 70]; III
16. Y[Aib]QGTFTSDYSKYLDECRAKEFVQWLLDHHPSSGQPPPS (bridge 16-20) [triple agonist of SEQ ID NO: 21]; III
17. Y[Aib]QGTFTSDYSKYLDEKRAKDFVQWLLDHHPSSGQPPPSC (bridge 16-20; also: ring between positions 16 and 20, type not given here) [triple agonist of SEQ ID NO: 76]; III
